Numbers sourced from paper PMC12933330.

experiment: Caco-2 cell membrane permeability study (transcellular transport, A-to-B); assay type: in vitro ADME; conditions: human; Caco-2, apical to basal, 10 μM compound, 2 h, 37 °C, 4% BSA in basal compartment; read-out: Ex. value, cell membrane permeability (Papp, AtoB)
value-kind: Papp A→B at 2 h, 10 μM

Here's what some known entries look like.
compound: Cc1cc(Nc2ncc(Cl)c(Nc3ccccc3S(=O)(=O)C(C)C)n2)c(OC(C)C)cc1C1CCN(CC(=O)NCCNc2cccc3c2C(=O)N(C2CCC(=O)NC2=O)C3=O)CC1 (centres unmarked)
measurement: 0.06 ×10⁻⁶ cm/s
--
compound: NC(=O)c1ncc(N2CCCCC2)nc1Nc1ccc(C2CCN(C[C@H]3CCN(c4ccc5c(c4)C(=O)N(C4CCC(=O)NC4=O)C5=O)C3)CC2)cc1 (some centres unmarked)
measurement: 0.11 ×10⁻⁶ cm/s
--
compound: Cc1sc2c(c1C)C(c1ccc(Cl)cc1)=NC(CC(=O)NCCCCCCCCNC(=O)COc1cccc3c1C(=O)N(C1CCC(=O)NC1=O)C3=O)c1nnc(C)n1-2 (centres unmarked)
measurement: 0.99 ×10⁻⁶ cm/s
--
compound: Cc1sc2c(c1C)C(c1ccc(Cl)cc1)=NC(CC(=O)NCCNc1cccc3c1C(=O)N(C1CCC(=O)NC1=O)C3=O)c1nnc(C)n1-2 (centres unmarked)
measurement: 0.52 ×10⁻⁶ cm/s

Now, please, on to the next compound.
stdin: Name the recorded Papp A→B at 2 h, 10 μM of the item Cn1c(=O)n(C2CCC(=O)NC2=O)c2cccc(C#CCOC3CCN(C[C@H]4CC[C@H](n5cc(NC(=O)c6cnn7ccc(N8C[C@H]9C[C@@H]8CO9)nc67)c(C(F)F)n5)CC4)CC3)c21 (some centres unmarked) in your answer.
stdout: 1.26 ×10⁻⁶ cm/s
